molecular target: Cellular tumor antigen p53 (Homo sapiens); assay: Primary qHTS for small molecule compounds that upregulate eGFP-tagged delta133p53alpha (in N-terminal) cells. (AID 2060322); conditions: NCI-H358 eGFP-delta133p53alpha fluorescence, 24 h; active compounds read high;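 also: cells pre-induced with doxycycline then dosed without doxycycline; series mostly up to about 56 µM; 0% = DMSO vehicle and 100% = reference activator; nearly all actives have a fitted effect of over 75% in size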
Records with an inconclusive call do not appear. Numbered stars: 1 amine (or outer) side, 2 acyl side, 3 side chain; on linkers, the order of the positions; unused ones are H or OH. Square brackets hold non-standard residues; d marks the D form. Peptide text beside a SMILES is read from it. * marks the point of attachment. ξ: configuration not given here. X9 = CCC(C)(N*)C(=O)C1CC[C@@H](C(=O)N[C@@H](Cc2ccccc2)C(=O)NCC(=O)O)N1; X8 = O=C([C@@H]1CC(O)CN1[*:1])[*:2]; aIle = CC[C@@H](C)[C@H](N)C(=O)O; Thr(3ξ) = CC(O)[C@H](N)C(=O)O; ξIva = CCC(C)(N)C(=O)O; Aib = CC(C)(N)C(=O)O

{"compound": "OCc1ccccc1O[C@@H]1O[C@H](CO)[C@@H](O)[C@H](O)[C@H]1O", "unitsText": "%", "activation": 2.68}
{"compound": "CC1OC(OC2C(CO)OC(OCC3OC(OC(=O)C45CCC(C)(C)CC4C4=CCC6C7(C)CCC(OC8OC(CO)C(O)C(OC9OC(CO)C(O)C(O)C9O)C8O)C(C)(C)C7CCC6(C)C4(C)CC5)C(O)C(O)C3O)C(O)C2O)C(O)C(O)C1OC1OC(CO)C(O)C(O)C1O (stereo unspecified)", "unitsText": "%", "activation": -2.29}
{"compound": "CC[C@@H](C)[C@H](NC(=O)C(C)(C)NC(=O)[C@H](CCC(N)=O)NC(=O)C(C)(CC)NC(=O)[C@H](Cc1c[nH]c2ccccc12)NC(C)=O)C(=O)N[C@H](C(=O)NC(C)(C)C(=O)N[C@@H](CC(C)C)C(=O)NC(C)(C)C(=O)N1CCC[C@H]1C(=O)N[C@@H](CCC(N)=O)C(=O)NC(C)(C)C(=O)N1CC(O)C[C@H]1C(=O)NC(C)(CC)C(=O)C1CC[C@@H](C(=O)N[C@@H](Cc2ccccc2)C(=O)NCC(=O)O)N1)C(C)O (stereo partly specified) (Ac-W[ξIva]Q[Aib][aIle][Thr(3ξ)][Aib]L[Aib]PQ[Aib][X8]-X9)", "unitsText": "%", "activation": 3.57}
{"compound": "Fc1ccc(C(OCCCc2cnc[nH]2)c2ccc(F)cc2)cc1", "unitsText": "%", "activation": -45.7}
{"compound": "C#CCC(Cc1cnc2nc(N)nc(N)c2n1)c1ccc(C(=O)N[C@@H](CCC(=O)O)C(=O)O)cc1 (stereo partly specified)", "unitsText": "%", "activation": -21.3}
{"compound": "COc1cccc2c(NCc3ccccc3)nc(-n3c(N)nc4ccccc43)nc12", "unitsText": "%", "activation": -21.2}
